Listing of entries alongside the reported TGI.
Tested on: SK-OV-3 ovarian
Method Notes: NCI tumour cell line growth inhibition, 48 h
Where a SMILES comes first, the peptide text is derived from it. [ ]: non-standard residue; d: D form. The star is where a group is joined. X28 = COC1=CC(=O)N(C(=O)[C@@H](O*)C(C)C)[C@H]1Cc1ccccc1; Bn2Val = CC(C)[C@@H](C(=O)*)N(Cc1ccccc1)Cc1ccccc1; NMeV = CN[C@H](C(=O)O)C(C)C; dNMeA = CN[C@H](C)C(=O)O

The following molecules have reported results that may help.
Molecule	Measurement Target	Readout Label	Result
COC1=CC(=O)N(C(=O)[C@@H](OC(=O)[C@@H](C)N(C)C(=O)[C@@H]2CCCN2C(=O)[C@H](C(C)C)N(C)C(=O)[C@@H](NC(=O)[C@H](C(C)C)N(Cc2ccccc2)Cc2ccccc2)C(C)C)C(C)C)[C@H]1Cc1ccccc1 (Bn2Val-V[NMeV]P[dNMeA]-X28)	SK-OV-3 ovarian	TGI	> 100 µM
COCCOC(C)C(=O)C(O)S(=O)(=O)O (stereo not given)	SK-OV-3 ovarian	TGI	> 100 µM
CCN1C(=O)N(CC)C2C1NN=c1s/c(=C\c3cccs3)c(=O)n12 (stereo not given)	SK-OV-3 ovarian	TGI	> 100 µM
O=C1C=CC(=O)C2C1Cc1ccccc1C2c1ccccc1 (stereo not given)	SK-OV-3 ovarian	TGI	> 100 µM
Cc1cc(Br)cc(C)c1NC(=O)C(=O)C(C(=O)c1ccncc1)C1OC(=O)c2ccccc21 (stereo not given)	SK-OV-3 ovarian	TGI	> 100 µM
C#CCN(N=O)C(=O)NCCCCC(NC(=O)OCc1ccccc1)C(=O)OCc1ccccc1 (stereo not given)	SK-OV-3 ovarian	TGI	> 100 µM

Query :: Quick check: TGI of `COC(=O)CCCC1(CCCC(=O)OC)CCCCCCCCC(CCCC(=O)OC)(CCCC(=O)OC)C(=O)C1=O` ?
Result :: > 100 µM

Query :: Given the entry CO[C@H]1CC[C@]2(C)C3=CC[C@@]4(C)C(CC[C@@H]4C(C)CC[C@@H](C)C(C)C)C(=CCC2C1)O3 (stereo not given in full) , report its measured TGI.
Result :: > 25 µM

Query :: Tell me the measured TGI of `CCCCCCCCCCCC[N+](C)(C)Cc1ccccc1` , please.
Result :: 10.7 µM

Query :: Consider the molecule `NC(=S)Nc1ccc2c(c1)oc1ccccc12` and give its measured TGI.
Result :: > 100 µM

---

System: U251 CNS
Method Notes: NCI tumour cell line growth inhibition, 48 h
Readout Label: TGI

Consider the reported TGI for these compounds:
> print(dat)
                                   compound  readout.label    result
1     CNC(=O)c1cc2nc3ccccc3c(=O)n2c2ccccc12            TGI   > 10 µM
2  C[C@@H](NC(=O)[C@@H]1C[C@]1(C)CO)c1cccc2ccccc12            TGI  > 100 µM
3  O=C(OCC1CCCN2CCCCC12)c1cccnc1 (stereo unspecified)            TGI  > 100 µM
4  C=C1C(=O)[C@]23C[C@H]1C[C@@H](O)[C@H]2[C@]1(COC3=O)[C@@H](OC(C)=O)CC[C@@](C)(COC(C)=O)[C@H]1C=O            TGI   > 50 µM

Query :: Recorded TGI for `O=C1NC(=O)C(=Cc2c3ccccc3cc3ccccc23)C(=O)N1` , please?
Result :: > 100 µM

Query :: Query: TGI; subject: COC1=CC(=O)c2c(cc(COP(N)(=O)N(CCCl)CCCl)n2C)C1=O (stereo unspecified)
Result :: 6.77 µM

---

Measured TGI by item
Test system: MALME-3M melanoma
Method Notes: NCI tumour cell line growth inhibition, 48 h
// note: answer is a bare numeric in µM

Field: example entries. Status: answers known.
Compound	Units Text	TGI
Oc1[nH]c(N=C2N=c3ccccc3=N2)c2ccccc12	µM	37.6
C#CCN(N=O)C(=O)NCCCCC(NC(=O)OCc1ccccc1)C(=O)OCc1ccccc1 (configuration not stated)	µM	71.6
COc1ccc(C(C#N)=C2C=CC(=NO)C=C2)cc1	µM	27.5
c1ccc2[nH]c3c(N=NC4=NCCN4)c4ccccc4c-3nc2c1	µM	24.1
C[C@]12CC[C@@H]3c4ccc(O)cc4CC[C@H]3[C@@H]1CC[C@@H]2NS(=O)(=O)c1cccc(Cl)c1	µM	6.75
C=C1C2C[C@@H]3OC4CC5O[C@]6(CC5OC4C(C)C3OC(=O)CC3CC[C@@H]4OC5C7OC8C[C@](CCC9CC(=C)[C@H](CCC(C[C@H]1C)O2)O9)(OC7C4O3)O[C@@H]85)C[C@@H]1O[C@@]2(CC(C)[C@@H]3OC(CC(=O)CCO)C(O)C[C@@H]3O2)CC(C)[C@@H]1O6 (some centres not stated)	µM	0.189
C/C(=N/NC(=S)Nc1cccc(Cl)c1)c1ccccn1	µM	10
CC(=O)O[C@@]12CO[C@@H]1C[C@H](O)[C@@]1(C)C(=O)[C@H](O)C3=C(C)[C@@H](OC(=O)[C@H](O)[C@@H](NC(=O)OC(C)(C)C)c4ccccc4)C[C@@](O)([C@@H](OC(=O)c4ccccc4)C12)C3(C)C (some centres not stated)	µM	29.6
O=C(NC12CC3CC(CC(C3)C1)C2)C(=O)c1c[nH]c2ccc(Br)cc12	µM	68.6
O=C1C=C2C=CC3CC2(O1)C1CCCCN31 (configuration not stated)	µM	44.4

Turning now to a further compound:
Query :: Look up TGI: `CC(=O)Oc1c2c(c(OC(C)=O)c3c1n(C(C)=O)c1ccccc1n3C(C)=O)n(C(C)=O)c1ccccc1n2C(C)=O`
Result :: 7.56

---

Below, each entry is listed alongside its reported TGI.
Test system: RPMI-8226 leukemia
Method Notes: NCI tumour cell line growth inhibition, 48 h
Quick note: give the figure in µM, leave out the unit.

Compound	Units Text	Result Number
Oc1cc(O)c2c(c1)O[C@H](c1cc(O)c(O)c(O)c1)[C@@H](O)C2	µM	43.9
CCCCNCCC(O)c1cc2ccc(C(F)(F)F)cc2c2cc(C(F)(F)F)ccc12 (centres undefined)	µM	4.63
CCCCC[C@H]1CC=C2C(=O)C=C[C@@H]2CC=CCCCC(=O)O[C@@H](CCCCC)CC=C2C(=O)C=C[C@@H]2CC=CCCCC(=O)O[C@@H](CCCCC)CC=C2C(=O)C=C[C@@H]2CC=CCCCC(=O)O1	µM	0.821
CCC#CC[C@H](O)C/C=C1/C(=O)C=C[C@@H]1C/C=C\CCCC(=O)OC	µM	2.86

Please examine the following record next.
Query :: Name the reported TGI value associated with the compound COC1=CC(=O)c2c(cc(COP(N)(=O)N(CCCl)CCCl)n2C)C1=O (centres undefined)
Result :: 4.73

---

Test system: HOP-62 NSCLC
Method Notes: NCI tumour cell line growth inhibition, 48 h
Known TGI of a selection of compounds
Answer in µM, number only, no unit symbol.

Query :: GET /values?readout=TGI&item= `N#C/C=c1/c2ccccc2n2nc3ccccc3c12`
Result :: 44.4

Query :: Item `Cc1cc(C)nc(NS(=O)(=O)c2ccc(Nc3c4ccccc4nc4c(C(=O)Nc5ccc(S(=O)(=O)Nc6cc(C)on6)cc5)ccc(Cl)c34)cc2)n1` has what recorded TGI?
Result :: 42.5

Query :: // query TGI value for entry CCCCCCCCCC(O)CC(=O)c1c(O)cccc1O (centres undefined)
Result :: 33.1

Query :: # query: TGI of entry CCN(CC)CCC(=O)OC1C(C)=CC(C)C(=O)CC(C(C)CC2CCC(O)C(OC)C2)OC(=O)C2CCCCN2C(=O)C(=O)[C@@]2(O)OC(CCC2C)CC(OC)\C(C)=C/C=C/C=C/C(C)CC(C)C(=O)C1OC (some centres undefined)
Result :: 21.1

Query :: Requested field: TGI. Item: `COc1cc(NS(C)(=O)=O)ccc1NCc1cnc2ccc3[nH]cccc3c12`
Result :: 55.6

Query :: Please look up its TGI: `N=c1n(CC(=O)NC23CC4CC(CC(C4)C2)C3)c2ccccc2n1CC(=O)NC12CC3CC(CC(C3)C1)C2`
Result :: 3.48

Query :: Reported TGI, compound `C/C(=N/NC(=S)Nc1cccc(Cl)c1)c1ccccn1` : ____
Result :: 3.5

Query :: Which TGI reading was recorded for the compound COc1cccc2c1C(=O)c1c(O)c3c(c(O)c1C2=O)C[C@@](O)(C(=O)CN1CCOCC1)C[C@@H]3OC1CC(N)C(O)C(C)O1 (some centres undefined) ?
Result :: 14.2

Query :: Would you kindly share the measured TGI for `CC(=O)Oc1c2c(c(OC(C)=O)c3c1n(C(C)=O)c1ccccc1n3C(C)=O)n(C(C)=O)c1ccccc1n2C(C)=O` ?
Result :: 53.5

Query :: Reported TGI, compound `C=C(C)[C@@H]1C/C=C(/CO)CC[C@H]2O[C@]2(C)CC/C=C(\C)CC1` : ____
Result :: 34.4
